# method.notes: yeast display, Sf9 membrane polyspecificity reagent, FACS + sequencing; frameworks hold sequencing errors

>  <record.sequence>
QVQIVESRGGLVQAGVSLRLSCAASGRIFAKNVMGWYRQAPGKDRELVAAISRSGGSTYYADSVKGRFTISRDNAKNTVYLQMNSLKPEDTAVYYCAATPAYGRRWSRYGYWGQGTQVNVSS

>  <polyreactivity (PSR sort gate)>
high polyreactivity

$$$$
>  <record.sequence>
QVQLVESGGGLVQAGGTLRLTCAASGRIFNSNDMRWYRQAPGKERELVASISPNTGTTYYADSVKGRFTISRDNAKNTVYLQMNSLKPEDTAVYYCAARGVYYQDGLVTGEAEYGYWGQGTQVTVSS

>  <polyreactivity (PSR sort gate)>
low polyreactivity

$$$$
>  <record.sequence>
QVQLVESGGGLVHAGGSLRLSCAASGSIYYAYAMGGYRQAPGKERELVATITWNGDSTYYADSVKGRFTISLDNAKNTVYLQMNSLKPEDTAVYYCAARYRWPIPGTQYEYWGQGTQVTVSS

>  <polyreactivity (PSR sort gate)>
low polyreactivity

$$$$
>  <record.sequence>
QVQLVESGGGLVQGGSLRLSCAASGFTFPIYVMGWSRHAPGKEMELVASISSVGSTNYADSVKGRFTISRDNSKNTVYLQMNSLKPEDTAVYYCNADDPNSYGGFDYWGQGTQVTVSS

>  <polyreactivity (PSR sort gate)>
low polyreactivity

$$$$
>  <record.sequence>
QVQLVESGGGLVQAGGSLRLSCDASGLTFRYYAMVWYRQAHGKERELDATITRAGRTNYADSVKGRFTISRDNAKNTVYFQMNRLNPEDTAVYYCNAKQSGKYPRVVGYDYWGQGTQVTVSS

>  <polyreactivity (PSR sort gate)>
high polyreactivity

$$$$
